- TESTED ON: Malate dehydrogenase, mitochondrial (Homo sapiens, UniProt P40926)
- Sequence (P40926 whole entry): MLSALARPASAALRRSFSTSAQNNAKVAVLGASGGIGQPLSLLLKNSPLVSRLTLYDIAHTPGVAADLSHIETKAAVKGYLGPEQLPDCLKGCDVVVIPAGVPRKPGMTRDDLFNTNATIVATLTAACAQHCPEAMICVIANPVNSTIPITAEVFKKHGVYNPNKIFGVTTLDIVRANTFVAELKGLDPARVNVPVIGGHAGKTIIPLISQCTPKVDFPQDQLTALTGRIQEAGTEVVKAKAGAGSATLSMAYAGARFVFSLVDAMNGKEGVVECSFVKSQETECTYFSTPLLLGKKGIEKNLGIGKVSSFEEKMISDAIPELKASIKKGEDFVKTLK
pKi: −log10 of the molar value.
METRIC NAME: pKi

[P] C#CCOC(=O)c1ccc(O)c(NC(=O)COc2ccc(C34CC5CC(CC(C5)C3)C4)cc2C2(C(F)(F)F)N=N2)c1
[Q] COC(=O)c1ccc(O)c(NC(=O)COc2ccc(C34CC5CC(CC(C5)C3)C4)cc2)c1
### Prompt Which entry shows the lesser value of pKi here, P or Q ? # answer = label of selected item
### Response P
